Quick reference for IC50 among some compounds
- testedSystem: Sigma non-opioid intracellular receptor 1 (Rattus norvegicus)
- assayName: Binding affinity for sigma receptor was evaluated by the inhibitory effect on [3H]DTG to rat whole brain membranes
- Type: cell membranes

[
  {
    "compound": "CC(=O)Nc1cccc(N2CCN(CCCN3C(=O)CCc4c(Cl)cccc43)CC2)c1",
    "IC50": "0.67 µM"
  }
]

Name the recorded IC50 for COc1cccc2c1CCC(=O)N2CCCN1CCN(c2ccccc2Cl)CC1 . 0.26 µM

* * *

Listed here: items and their measured pIC50.
- testedSystem: Sigma non-opioid intracellular receptor 1 (Rattus norvegicus, UniProt Q9R0C9)
- Sequence (Q9R0C9 whole entry): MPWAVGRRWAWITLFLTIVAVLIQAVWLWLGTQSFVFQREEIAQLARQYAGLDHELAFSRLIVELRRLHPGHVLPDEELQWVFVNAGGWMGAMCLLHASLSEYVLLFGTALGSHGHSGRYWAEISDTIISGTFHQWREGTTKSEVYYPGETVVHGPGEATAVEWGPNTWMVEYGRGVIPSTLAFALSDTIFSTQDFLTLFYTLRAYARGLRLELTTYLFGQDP
- assayName: Binding affinity for sigma receptor was evaluated by the inhibitory effect on [3H]DTG to rat whole brain membranes
- Format: cell membranes
Just so you know, pIC50 here is -log10 of the concentration in molar units; reply with that number alone.

[
  {
    "structureAsSmiles": "Br.O=C1CCc2c(Cl)cccc2N1CCCN1CCN(c2cccc(O)c2)CC1",
    "reading": 6.62
  },
  {
    "structureAsSmiles": "O=c1ccc2ccc(O)cc2n1CCCN1CCN(c2ccc(F)cc2)CC1",
    "reading": 5.88
  },
  {
    "structureAsSmiles": "COc1cccc2c1ccc(=O)n2CCCN1CCN(c2cccc(Cl)c2)CC1",
    "reading": 6.01
  },
  {
    "structureAsSmiles": "O=C1CCc2c(Cl)cccc2N1CCCN1CCN(c2cccc([N+](=O)[O-])c2)CC1",
    "reading": 6.41
  },
  {
    "structureAsSmiles": "COc1cccc(N2CCN(CCCN3C(=O)CCc4c(Cl)cccc43)CC2)c1",
    "reading": 6.89
  },
  {
    "structureAsSmiles": "COc1cccc2c1CCC(=O)N2CCCN1CCN(c2cccc([N+](=O)[O-])c2)CC1",
    "reading": 6.06
  }
]

Okay, now this compound:
# pIC50 lookup, item COc1cccc2c1ccc(=O)n2CCCN1CCN(c2cccc(C(F)(F)F)c2)CC1 6.09
